- Organism: Rattus norvegicus
- test_name: Open TG-GATES - Regimen: Single
- Type: toxicity, organism-based, Sprague-Dawley
- Parameters: regimen Single, gender Male, age 6 weeks
- condition: in vivo, po, 0 mg/kg, 6 h, tissue Plasma, route gavage, dose level Control
In this section, each of the compounds is paired with its reported A/G.

>  <compound>
COc1ccc(O)c(C(C)(C)C)c1.COc1ccc(O)cc1C(C)(C)C [BUTYLATED HYDROXYANISOLE]

>  <A/G>
0.8

$$$$
>  <compound>
S=C=Nc1cccc2ccccc12 [1-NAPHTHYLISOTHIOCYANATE]

>  <A/G>
1.8

$$$$
>  <compound>
COc1ccc(Cl)cc1C(=O)NCCc1ccc(S(=O)(=O)NC(=O)NC2CCCCC2)cc1 [GLYBURIDE]

>  <A/G>
1.6

$$$$
>  <compound>
C=CCO

>  <A/G>
1.6

$$$$
>  <compound>
Cn1cnc([N+](=O)[O-])c1Sc1ncnc2nc[nH]c12

>  <A/G>
1.3

$$$$
